biological target: recombinant human mutant KRas G12V (SOS1-mediated nucleotide exchange) (Homo sapiens (Human), UniProt P01116, G12V); experiment: KRAS biochemical assay, BODIPY-GDP exchange TR-FRET (G12V-GDP HTRF)
Sequence (P01116-2 other isoform, or with tags, fused parts or gaps G12V): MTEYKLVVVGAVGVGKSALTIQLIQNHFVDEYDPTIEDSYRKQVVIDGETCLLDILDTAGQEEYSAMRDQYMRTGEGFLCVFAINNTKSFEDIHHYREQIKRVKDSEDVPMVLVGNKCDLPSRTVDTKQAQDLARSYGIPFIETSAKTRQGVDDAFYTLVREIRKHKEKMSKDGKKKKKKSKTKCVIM
ASSAY_METRIC: IC50 (nM)

a = Cc1cc(N)nc(-c2nc3c4c(nc(OC[C@@]56CCCN5C[C@H](F)C6)nc4c2Cl)N([C@H](C)c2cccnc2N)CCO3)c1C(F)(F)F [Example 633]
b = Cc1nc(N)nc(-c2nc3c4c(nc(OC[C@@]56CCCN5C[C@H](F)C6)nc4c2F)N([C@H](C)c2cccnc2N)CCO3)c1C(F)(F)F [Example 628]
c = Cc1c(F)c(N)c(F)c(-c2nc3c4c(nc(OC[C@@]56CCCN5C[C@H](F)C6)nc4c2Cl)N([C@H](C)c2cccnc2N)CCO3)c1C(F)(F)F (single isomer, unassigned) [Example 629b]
Prompt line: Rank descending by IC50: all 3 compounds from above. Write the labels, ordered according to the request.
Response line: c, b, a
(c: 4.8 nM, b: 0.33 nM, a: 0.2 nM)

A = Cc1cc(N)nc(-c2nc3c4c(nc(OC[C@@]56CCCN5C[C@H](F)C6)nc4c2F)N(C(C)c2scnc2N)CCO3)c1C(F)(F)F (stereo partly drawn) [Example 607]
B = C[C@H](c1cccnc1N)N1CCOc2nc(-c3nc(N)cc4ccccc34)c(F)c3nc(OC[C@@]45CCCN4C[C@H](F)C5)nc1c23 [Example 618]
C = Cc1cc(N)c(Cl)c(-c2nc3c4c(nc(OC[C@@]56CCCN5C[C@H](F)C6)nc4c2F)N([C@H](C)c2cccnc2N)CCO3)c1C(F)(F)F (single isomer, unassigned) [Example 21b]
Prompt line: Let's sort these by IC50, smallest first. Go ahead? Write the labels, ordered according to the request.
Response line: C, A, B

---

system: SW620 cells; assay: SW620 3D proliferation assay (CellTiter-Glo); format: cell-based; details: SW620, 3D culture, 7 days, read-out: SW620 CTG IC50
ASSAY_METRIC: IC50 (nM)

1 = Cc1cc(N)c(Cl)c(-c2nc3c4c(nc(OC[C@@]56CCCN5C[C@H](F)C6)nc4c2F)N([C@H](C)c2cccnc2N)CCO3)c1C(F)(F)F (single isomer, unassigned) [Example 21b]
2 = Cc1cc(N)c(Cl)c(-c2nc3c4c(nc(OC[C@@]56CCCN5C[C@H](F)C6)nc4c2F)N([C@H](C)c2cccnc2N)CCO3)c1C(F)(F)F (single isomer, unassigned) [Example 21a]
Prompt line: // which entry has the larger IC50 value, 1 or 2 ? The response must carry the label of the picked entry.
Response line: 2

---

system: HPAC cells; assay: HPAC 3D proliferation assay (CellTiter-Glo); assay type: cell-based; settings: Homo sapiens, 168 h, 3D culture, 7 days, read-out: HPAC CTG IC50
Reported pIC50 values are given for each entry in this list.
// scale note: pIC50 = -log10(conc_M); give the bare number

Below, each entry is followed by its recorded pIC50 result.
Cc1c(F)c(N)c(F)c(-c2nc3c4c(nc(OC[C@@]56CCCN5C[C@H](F)C6)nc4c2Cl)N([C@H](C)c2cccnc2N)CCO3)c1C(F)(F)F (single isomer, unassigned) [Example 629b]	6.17
C#Cc1cccc2cc(O)cc(-c3nc4c5c(nc(OC[C@@H]6CC[C@H]7COCCN76)nc5c3F)N([C@H](C)c3cccnc3N)CCO4)c12	6.64
Cc1c(F)c(N)c(F)c(-c2nc3c4c(nc(OC[C@@]56CCCN5C[C@H](F)C6)nc4c2Cl)N([C@H](C)c2cccnc2N)CCO3)c1C(F)(F)F (atropisomer, axis not shown; (aS)) [Example 629a]	7.82

Prompt line: Look at this compound and give its reported pIC50. `Cc1c(F)c(N)nc(-c2nc3c4c(nc(OC[C@@]56CCCN5C[C@H](F)C6)nc4c2F)N([C@H](C)c2nccnc2N)CCO3)c1C(F)(F)F`
Response line: 6.68

---

test system: H1975 cells; experiment: H1975 CTG proliferation assay; type: cell-based; conditions: Homo sapiens, NCI-H1975, H1975, CTG
pIC50: −log10 of the molar value.
ASSAY_METRIC: pIC50

Below, each entry is followed by its recorded pIC50 result.
Cc1c(F)c(N)cc(-c2nc3c4c(nc(OC[C@@]56CCCN5C[C@H](F)C6)nc4c2F)N([C@H](C)c2cccnc2N)CCO3)c1C(F)(F)F	7.89
C#Cc1cccc2cc(O)cc(-c3nc4c5c(nc(OC[C@@]67CCCN6C[C@H](F)C7)nc5c3F)N([C@H](C)c3nccnc3N)CCO4)c12	8.59
Cc1c(F)c(N)cc(-c2nc3c4c(nc(OC[C@@H]5CC(F)(F)CN5C)nc4c2F)N([C@H](C)c2nccnc2N)CCO3)c1C(F)(F)F	6.26
C#Cc1cccc2cc(O)cc(-c3nc4c5c(nc(OC[C@@]67CCCN6C[C@H](F)C7)nc5c3F)N([C@H](C)c3cccnc3N)CCO4)c12	8.59
Cc1c(F)c(N)c(F)c(-c2nc3c4c(nc(OC[C@@H]5CCCN5C)nc4c2F)N([C@H](C)c2cccnc2N)CCO3)c1C(F)(F)F	6.44
C[C@H](c1cccnc1N)N1CCOc2nc(-c3cc(N)nc4ccccc34)c(F)c3nc(OC[C@@]45CCCN4C[C@H](F)C5)nc1c23	6.53
C[C@H](c1cccnc1N)N1CCOc2nc(-c3nc(N)cc4ccccc34)c(F)c3nc(OC[C@@]45CCCN4C[C@H](F)C5)nc1c23	7.03
C#Cc1c(F)ccc2cc(O)cc(-c3nc4c5c(nc(OC[C@@]67CCCN6C[C@H](F)C7)nc5c3F)N([C@H](C)c3cccnc3N)CCO4)c12	8.59

A = Cc1cc(N)cc(-c2nc3c4c(nc(OC[C@@]56CCCN5C[C@H](F)C6)nc4c2F)N([C@H](C)c2cccnc2N)CCO3)c1C(F)(F)F
B = C[C@H](c1cccnc1N)N1CCOc2nc(-c3cc(O)cc4ccccc34)c(F)c3nc(OC[C@@]45CCCN4C[C@H](F)C5)nc1c23
C = Cc1c(F)c(N)cc(-c2nc3c4c(nc(OC[C@@]56CCCN5C[C@H](F)C6)nc4c2F)N([C@H](C)c2cncnc2N)CCO3)c1C(F)(F)F
D = C#Cc1cccc2cncc(-c3nc4c5c(nc(OC[C@@]67CCCN6C[C@H](F)C7)nc5c3F)N([C@H](C)c3cccnc3N)CCO4)c12
Prompt line: // ranking: key=pIC50, reverse=True Write the labels, ordered according to the request.
Response line: D, A, C, B

a = Cc1nc(N)cc(-c2nc3c4c(nc(OC[C@@H]5CCCN5C)nc4c2F)N([C@H](C)c2cccnc2N)CCO3)c1C(F)(F)F
b = Cc1nc(N)cc(-c2nc3c4c(nc(OC[C@@]56CCCN5C[C@H](F)C6)nc4c2F)N([C@H](C)c2cccnc2N)CCO3)c1C(F)(F)F
Prompt line: Between a and b , which one shows the smaller pIC50 number? The response must carry the label of the picked entry.
Response line: a

A = Cc1nc(N)nc(-c2nc3c4c(nc(OC[C@@]56CCCN5C[C@H](F)C6)nc4c2F)N([C@H](C)c2cccnc2N)CCO3)c1C(F)(F)F
B = Cc1c(F)c(N)nc(-c2nc3c4c(nc(OC[C@@]56CCCN5C[C@H](F)C6)nc4c2F)N([C@H](C)c2cncnc2N)CCO3)c1C(F)(F)F
Prompt line: Between A and B , which one shows the smaller pIC50 number? The response must carry the label of the picked entry.
Response line: A

1 = C[C@H](c1cccnc1N)N1CCOc2nc(-c3cc(N)c(F)c(F)c3C(F)(F)F)c(F)c3nc(OC[C@@]45CCCN4C[C@H](F)C5)nc1c23
2 = CCc1cccc2cc(O)cc(-c3nc4c5c(nc(OC[C@@]67CCCN6C[C@H](F)C7)nc5c3F)N([C@H](C)c3cccnc3N)CCO4)c12
Prompt line: Between 1 and 2 , which one shows the smaller pIC50 number? The response must carry the label of the picked entry.
Response line: 1

I = Cc1c(F)c(N)c(F)c(-c2nc3c4c(nc(OC[C@@]56CCCN5C[C@H](F)C6)nc4c2Cl)N([C@H](C)c2cccnc2N)CCO3)c1C(F)(F)F (single isomer, unassigned) [Example 629b]
II = Cc1c(F)c(N)cc(-c2nc3c4c(nc(OC[C@@]56CCCN5C[C@]5(CC5(F)F)C6)nc4c2F)N([C@H](C)c2cccnc2N)CCO3)c1C(F)(F)F
III = C[C@H](c1cccnc1N)N1CCOc2nc(-c3c(C(F)(F)F)cc(F)c(N)c3F)c(F)c3nc(OC[C@@]45CCCN4C[C@H](F)C5)nc1c23
IV = Cc1c(F)c(N)cc(-c2nc3c4c(nc(OC[C@@H]5CC[C@H]6COCCN65)nc4c2F)N([C@H](C)c2nccnc2N)CCO3)c1C(F)(F)F
Prompt line: Let's sort these by pIC50, smallest first. Go ahead? Write the labels, ordered according to the request.
Response line: I, III, IV, II
